- Test system: SNB-75 CNS
- method: NCI tumour cell line growth inhibition, 48 h; in the data active means GI50 below about 0.43 µM; inactive means the rest
Your response should consist of one outcome taken from Yes for active, No for inactive

Here's what some known entries look like.
molecule	cat
CCCCCCCCNc1cc2c3c(c1)CCCN3CCC2	No
Fc1ccc(C2CC(c3cccc(Nc4ccncc4)c3)=NN2c2ccc(Cl)cc2)cc1 (centres undefined)	No
O=c1[nH]nnc2c1ncn2C1OC(CO)C(O)C1O (centres undefined)	No

Returns: the outcome recorded for CCN(Cc1cc(Nc2nc(C)cn3c(-c4cn[nH]c4)cnc23)sn1)C(C)(C)CO in this assay. Yes

Returns: the outcome recorded for C[C@]12C[C@H](CCCCCCNCCOC(=O)NCCCc3ccc(N(CCCl)CCCl)cc3)C3=C4CCC(=O)C=C4CCC3C1CC[C@@H]2O (some centres undefined) in this assay. No

Returns: the outcome recorded for COc1ncnc2c(-c3ccccc3)cn(COCc3ccccc3)c12 in this assay. No

Returns: the outcome recorded for CN(O)C(=O)SCC(NC(=O)CCC(N)C(=O)O)C(=O)NCC(=O)O (centres undefined) in this assay. No

Returns: the outcome recorded for O=C1C(Cl)=C(Nc2cccc(F)c2)C(=O)N1Cc1ccc(Cl)cc1 in this assay. No

Returns: the outcome recorded for COc1ccc2[nH]cc(-c3ccc(-c4c[nH]c5ccc(OC)cc45)s3)c2c1 in this assay. No

The measured values listed here are drawn from PubChem BioAssay (NCI).
